Molecular target: T1, mouse CD276 protein (mouse, UniProt Q8VE98 29-316)
T1 construct: whole, on cells; also called mCD276; CHO-S-mCD276
T1 sequence (looked up): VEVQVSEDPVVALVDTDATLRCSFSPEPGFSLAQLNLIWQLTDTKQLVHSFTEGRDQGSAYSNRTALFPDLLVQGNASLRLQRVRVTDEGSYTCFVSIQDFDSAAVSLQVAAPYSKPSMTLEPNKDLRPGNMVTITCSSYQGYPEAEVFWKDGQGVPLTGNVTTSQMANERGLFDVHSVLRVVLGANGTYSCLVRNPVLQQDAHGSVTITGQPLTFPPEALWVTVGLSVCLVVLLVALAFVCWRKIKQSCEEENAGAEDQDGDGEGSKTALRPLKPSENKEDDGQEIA
Assay: FACS on CHO-S-mCD276 cells
Record form. Attribute: FACS MFI. Fill in for each entry.
Number only, no unit.

Note to self: FACS MFI recorded for 11-C12-F4-F6 (antibody, V domains shown, mouse monoclonal antibody (hybridoma)) VH: QIQLVQSGPELKKPGETVKISCKASGYTFRNFGMNWVKQGPGKGLKWMGWINPYTGEPTYVGDFKGRFAFSLETSASTAYLQINNLKNEDMATYFCARDDGYWYTMDYWGQGTSVTVSS VL: DVVMTQTPPSLPVSLGDQASIPCRSSQSLVHSNGITYLHWYLQKPGQSPKLLIYKVSNRFSGVPDRFSGSGSGTDFTLKISRVEAEDLGVYFCSQSTHVPWTFGGGTKLEIK was 1340

Note to self: FACS MFI recorded for 30-C7-C11-D4 (antibody, V domains shown, mouse monoclonal antibody (hybridoma)) VH: EVQLVESGPGLVKPSQSLSLTCTVTGYSITSDYAWNWIRQFPGNKLEWMGYISHSGSTSYNPSLKSRISITRDTSKNQFFLQLNSVTTEDTATYYCARSLGRRWYFDVWGAGTTVTVSS VL: DIVMTQSPSSLAMSVGQKVTLSCKSSQSLLNSSTQKNYLAWYQQKPGQSPKLLVYFASTRDSGVPDRFIGSGSGTEFTLTISSVQAEDLADYFCQQHYIIPFTFGAGTKLEIK was 8220

Note to self: FACS MFI recorded for 26-D2-D6-B12 (antibody, V domains shown, mouse monoclonal antibody (hybridoma)) VH: QIQLVQSGPELKKPGETVKISCKASGYIFRNYGMNWVKQAPGKGLKWMGWINSYTGKPTYVDDFKGRFAFSLETSASTAYLQINNLKNEDMATYFCARDDGYWYTMDYWGQGTSVTVSS VL: DVVMTQTPLSLPVSLGDQASISCRSSQSLVHSNGHTYLHWYLQKPGQSPKLLIYKVSNRFSGVPDRFSGSGSGTDFTLKISRVEAEDLGVYFCSQSTHVPWTFGGGTKLEIK was 1310
